Can you tell me EC50 for the items I'm about to list?
- System: Influenza A virus
- test.name: Antiviral activity against Influenza virus A/California/07/09 (H1N1) pdm09 infected in MDCK cells after 48 hrs followed by incubated in chicken erythrocytes for 1 hr by hemagglutinination based end-point dilution method
- Type: functional, Influenza A virus (A/California/07/2009(H1N1))
- details: Influenza A virus, pdm09, MDCK; read-out: ED50 (the source's name)
Give bare numbers, in µM.

As a guide, the following entries are already answered.
CC(=O)c1c(O)c(C)c(O)c2c1OC1=CC(=O)/C(=C(/C)Nc3ccc(Br)cc3)C(=O)[C@@]12C	20.2
NC(=O)c1ncn([C@@H]2O[C@H](CO)[C@@H](O)[C@H]2O)n1 [RIBAVIRIN]	24.6
CC(=O)c1c(O)c(C)c(O)c2c1OC1=CC(=O)/C(=C(/C)Nc3cccc(F)c3)C(=O)[C@]12C	4

Entry `CC(=O)c1c(O)c(C)c(O)c2c1OC1=CC(=O)/C(=C(/C)Nc3ccc(Cl)cc3)C(=O)[C@]12C` under Influenza A virus had EC50 of 13.1
